Target: OsSMF1 (Oryza sativa, UniProt Q6ZLB0 1-436)
Sequence: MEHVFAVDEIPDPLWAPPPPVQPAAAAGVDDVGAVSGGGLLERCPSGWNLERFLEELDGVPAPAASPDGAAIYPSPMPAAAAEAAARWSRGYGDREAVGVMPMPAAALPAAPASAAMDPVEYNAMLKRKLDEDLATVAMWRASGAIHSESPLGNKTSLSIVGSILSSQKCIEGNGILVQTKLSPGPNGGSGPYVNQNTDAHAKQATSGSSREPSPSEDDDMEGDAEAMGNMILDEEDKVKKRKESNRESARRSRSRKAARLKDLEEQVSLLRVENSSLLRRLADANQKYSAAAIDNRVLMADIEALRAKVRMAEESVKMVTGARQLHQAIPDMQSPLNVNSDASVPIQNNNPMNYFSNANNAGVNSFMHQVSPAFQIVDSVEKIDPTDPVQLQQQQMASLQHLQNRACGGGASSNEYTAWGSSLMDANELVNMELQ
Test: protein-binding microarray (RPBM); PBS, 2% BSA, 51.3 ng/ul salmon testes DNA, 50 uM zinc acetate, 200 nM TF, 25 C, 1 h; high values mean tight binding
Settings: protein: recombinant; tags: N-terminal polyhistidine and DsRed monomer fusion (pET32a); chain copies: 2; label: CyDye5-dUTP incorporated in the synthesized complementary strand; 3' TTTTT single-stranded linker to array surface; dsDNA, one strand shown
In all, about 39,000 sequences were measured (“fluorescence intensity (a.u.)”: median about 4,300, highest 2% from about 39,000 on). The list comes from a sample in which the highest values are over-represented; it also holds close analogues and randomly drawn sequences.
sequences and their reported binding signal

# macromolecule sequence, binding signal
records = [
    ("ACCTTGAGTTTGAGTGCGATTCCTCCCTTCTTTCGGTCACCGGAGTCACCTAGTGCAG", "21100 fluorescence intensity (a.u.)"),
    ("ATTGTTGACACTATGACTTTCTTACTTTGACCGCAATTTTCGGAGTCACCTAGTGCAG", "3720 fluorescence intensity (a.u.)"),
    ("TGACATGTGGGGCCCACGCTGACTCAGCCGCCACGTCAGACGGAGTCACCTAGTGCAG", "19600 fluorescence intensity (a.u.)"),
    ("GTGTGCTGTGTGTGGTCTGAGATGATGTGTACTGCTGCTACGGAGTCACCTAGTGCAG", "3950 fluorescence intensity (a.u.)"),
    ("CTCGAGCCCGCGGATGGCGCCCCATGGCGTGGCGGCGGAGCGGAGTCACCTAGTGCAG", "3820 fluorescence intensity (a.u.)"),
    ("ATATGTGGGTCTCATGCTGACTCATCCGCCACGTCAGATACGGAGTCACCTAGTGCAG", "42600 fluorescence intensity (a.u.)"),
    ("ATGTTATCGTGCTAGTGTCAGCACATTCTCACTGATATTACGGAGTCACCTAGTGCAG", "5330 fluorescence intensity (a.u.)"),
    ("ACTTGCCACGGTGCCGCCTAACAGGCAGCCGTACCTGCCTCGGAGTCACCTAGTGCAG", "3320 fluorescence intensity (a.u.)"),
    ("CGGTCGACCCACCGTCTGCCACGTCAGCTTGCCGCCCACCCGGAGTCACCTAGTGCAG", "22800 fluorescence intensity (a.u.)"),
    ("GAGAGAAGATAGTAGTGGTAGTAGTAGCTGAGCTGTGTCACGGAGTCACCTAGTGCAG", "3360 fluorescence intensity (a.u.)"),
    ("AAAGTCCGCTCGTGTTATTGGTAATTGAACTACTAAGCTACGGAGTCACCTAGTGCAG", "41300 fluorescence intensity (a.u.)"),
    ("ACCTCTGGTAGCAGCAGCAGCTCGCACGCAGCTCATCGTGCGGAGTCACCTAGTGCAG", "40700 fluorescence intensity (a.u.)"),
    ("CTACTAATAAGGCGTGTTATTATTGGTCATCAATGGCGTCCGGAGTCACCTAGTGCAG", "3300 fluorescence intensity (a.u.)"),
    ("TCACGCTGACCAAACACCATCTGTTATTCTGTTTGTTTGTCGGAGTCACCTAGTGCAG", "3640 fluorescence intensity (a.u.)"),
    ("CGTCGCCGTCGCCTCGCCTCGTCACGGCCGCCTCCGCCATCGGAGTCACCTAGTGCAG", "7920 fluorescence intensity (a.u.)"),
    ("TCTACTCCTAAATCCACATCATCTTTAGCAAAAGCAACAACGGAGTCACCTAGTGCAG", "4670 fluorescence intensity (a.u.)"),
    ("AAGGTGAGGTTGGTCAACATTTGTCATCAAATTTTGATCACGGAGTCACCTAGTGCAG", "3400 fluorescence intensity (a.u.)"),
    ("CATGCCAGGTCAGTCGGCATCCATGAAGACTGCACTGCACCGGAGTCACCTAGTGCAG", "42600 fluorescence intensity (a.u.)"),
    ("CCAGCAGCCCCTCTCTCATCCATGGTAGTGCTCTGTCATGCGGAGTCACCTAGTGCAG", "3400 fluorescence intensity (a.u.)"),
    ("CCCAATCCGAACGGGACAGCTGCCCACGTGCGACCCATGTCGGAGTCACCTAGTGCAG", "4920 fluorescence intensity (a.u.)"),
    ("GACGGCGCGGTCGACCCGCCGTCTGCCACGTCAGCTTGCCCGGAGTCACCTAGTGCAG", "27400 fluorescence intensity (a.u.)"),
    ("GGGGTGAAAATGAATTAGATGCCACGTGCAGGTTCGCATGCGGAGTCACCTAGTGCAG", "10000 fluorescence intensity (a.u.)"),
    ("ACCGAGTAGATCACTTCCGTGCAAGTTGGTTGACAAGTATCGGAGTCACCTAGTGCAG", "3480 fluorescence intensity (a.u.)"),
    ("TCAGCTGCGTCACCCGAGTCCTCCACTCGTCTCCGCTATTCGGAGTCACCTAGTGCAG", "5650 fluorescence intensity (a.u.)"),
    ("AGAGCTGAGCCTTATGTGTGGTCTGTCTGTGCCTAGTCGACGGAGTCACCTAGTGCAG", "48400 fluorescence intensity (a.u.)"),
    ("GTTAGCGTGGCATGCCACGTCATCTCACGAAGCGGGTTAGCGGAGTCACCTAGTGCAG", "18100 fluorescence intensity (a.u.)"),
    ("GGTCGACCCACCGTCTGCCACGTCAGCTTGCTGCCCACCACGGAGTCACCTAGTGCAG", "48400 fluorescence intensity (a.u.)"),
    ("AGCCCACGTCCAGCTCACACACGCACCCACAACCGACCCACGGAGTCACCTAGTGCAG", "6070 fluorescence intensity (a.u.)"),
    ("GCGTGGTGCGTATCGTGCTCATCGCATCGGCCTCCGTATACGGAGTCACCTAGTGCAG", "40000 fluorescence intensity (a.u.)"),
    ("CTGGAGCGGGCGGCCACGGTCACGCCACGTCAGCTTCCATCGGAGTCACCTAGTGCAG", "42100 fluorescence intensity (a.u.)"),
    ("GCCATCCTCACGCACACGCCACGTGCTCGACGAAATGCCGCGGAGTCACCTAGTGCAG", "4190 fluorescence intensity (a.u.)"),
    ("GTTTTGTGATTTGGTACATGTGGTAGCATTCACCAAATGTCGGAGTCACCTAGTGCAG", "39600 fluorescence intensity (a.u.)"),
    ("AACGGGGCCTCGTAGCAACAGCTCTGACGCACGTGACCTCCGGAGTCACCTAGTGCAG", "5400 fluorescence intensity (a.u.)"),
    ("CATTTGTTTTATTTTAGCATTTGTCACTTACATGTGGGACCGGAGTCACCTAGTGCAG", "3180 fluorescence intensity (a.u.)"),
    ("CGCCGGCACAGCGACATAGCTGACGTCGACGATGCTCACTCGGAGTCACCTAGTGCAG", "5350 fluorescence intensity (a.u.)"),
    ("ACTGTTATTCCTACAGGCCAAAGCTGACCTAACCAATTCACGGAGTCACCTAGTGCAG", "46800 fluorescence intensity (a.u.)"),
    ("TAACATAGTTGATATTGTTTAATGTCATGACAAAGAATGACGGAGTCACCTAGTGCAG", "3580 fluorescence intensity (a.u.)"),
]
